Assay: Biodistribution of ^131 I-3 in CD-1 Mice, normal and blocked with lisinopril
Type: in vivo
Settings: mouse, small intestine, iv, 1 uCi, 1.5 hours, blocked (lisinopril); read-out: Biodistribution, Sm. Intest.
Procedure: It is well known that there are high ACE concentrations in the lungs, kidneys, pre-optic region of the brain and the blood.^4 Localization of the radioactivity in these organs was expected. […] A blocking study was undertaken to differentiate between specific and non-specific binding. ^131 I-3 was prepared as described above and used in this experiment. The experiment was carried out using male CD-1 mice. […] The desired organs were rinsed, blotted, weighed and counted. […]
experimentalReadout: tissue uptake at 1.5 h (%ID/g)
Dear colleague, please return just the value in %ID/g, with no unit written.

Ask: Return tissue uptake at 1.5 h for the following compound: O=C(NCCCC[C@H](N[C@@H](CCc1ccccc1)C(=O)O)C(=O)N1CCC[C@H]1C(=O)O)c1cccc([131I])c1 [^131 I-3, Lisinopril N^ε -radioiodobezamide]
Result: 21.7

----------
Experiment: Biodistribution of ^131 I-3 in CD-1 Mice, normal and blocked with lisinopril
Assay type: in vivo
Details: mouse, contents, iv, 1 uCi, 3.0 hours, normal (not blocked); read-out: Biodistribution, Contents
experimentalReadout: tissue uptake at 3 h (%ID/g)
Dear colleague, please return just the value in %ID/g, with no unit written.

Ask: Return tissue uptake at 3 h for the following compound: O=C(NCCCC[C@H](N[C@@H](CCc1ccccc1)C(=O)O)C(=O)N1CCC[C@H]1C(=O)O)c1cccc([131I])c1 [^131 I-3, Lisinopril N^ε -radioiodobezamide]
Result: 21.4

----------
Assay: Biodistribution of ^131 I-3 in CD-1 Mice, normal and blocked with lisinopril
Assay type: in vivo
Settings: mouse, lung, iv, 1 uCi, 3.0 hours, blocked (lisinopril); read-out: Biodistribution, Lung
Protocol: It is well known that there are high ACE concentrations in the lungs, kidneys, pre-optic region of the brain and the blood.^4 Localization of the radioactivity in these organs was expected. […] A blocking study was undertaken to differentiate between specific and non-specific binding. ^131 I-3 was prepared as described above and used in this experiment. The experiment was carried out using male CD-1 mice. […] The desired organs were rinsed, blotted, weighed and counted. […]
experimentalReadout: tissue uptake at 3 h (%ID/g)
Dear colleague, please return just the value in %ID/g, with no unit written.

Ask: Return tissue uptake at 3 h for the following compound: O=C(NCCCC[C@H](N[C@@H](CCc1ccccc1)C(=O)O)C(=O)N1CCC[C@H]1C(=O)O)c1cccc([131I])c1 [^131 I-3, Lisinopril N^ε -radioiodobezamide]
Result: 0.5

----------
Assay: Biodistribution of ^131 I-3 in CD-1 Mice, normal and blocked with lisinopril
Format: in vivo
Details: mouse, muscle, iv, 1 uCi, 0.5 hours, blocked (lisinopril); read-out: Biodistribution, Muscle
experimentalReadout: tissue uptake at 0.5 h (%ID/g)
Dear colleague, please return just the value in %ID/g, with no unit written.

Ask: Return tissue uptake at 0.5 h for the following compound: O=C(NCCCC[C@H](N[C@@H](CCc1ccccc1)C(=O)O)C(=O)N1CCC[C@H]1C(=O)O)c1cccc([131I])c1 [^131 I-3, Lisinopril N^ε -radioiodobezamide]
Result: 1.1

----------
Test: Biodistribution of ^131 I-3 in CD-1 Mice, normal and blocked with lisinopril
Assay type: in vivo
Details: mouse, large intestine, iv, 1 uCi, 1.5 hours, normal (not blocked); read-out: Biodistribution, lg. Intest.
experimentalReadout: tissue uptake at 1.5 h (%ID/g)
Dear colleague, please return just the value in %ID/g, with no unit written.

Ask: Return tissue uptake at 1.5 h for the following compound: O=C(NCCCC[C@H](N[C@@H](CCc1ccccc1)C(=O)O)C(=O)N1CCC[C@H]1C(=O)O)c1cccc([131I])c1 [^131 I-3, Lisinopril N^ε -radioiodobezamide]
Result: 1.1

----------
Test: Biodistribution of ^131 I-3 in CD-1 Mice, normal and blocked with lisinopril
Type: in vivo
Conditions: mouse, stomach, iv, 1 uCi, 6.0 hours, normal (not blocked); read-out: Biodistribution, Stomach
experimentalReadout: tissue uptake at 6 h
Write the quantity with the unit trailing the number.

Ask: Return tissue uptake at 6 h for the following compound: O=C(NCCCC[C@H](N[C@@H](CCc1ccccc1)C(=O)O)C(=O)N1CCC[C@H]1C(=O)O)c1cccc([131I])c1 [^131 I-3, Lisinopril N^ε -radioiodobezamide]
Result: 5.1 %ID/g

----------
Assay: Biodistribution of ^131 I-3 in CD-1 Mice, normal and blocked with lisinopril
Type: in vivo
Details: mouse, fat, iv, 1 uCi, 0.5 hours, normal (not blocked); read-out: Biodistribution, Fat
experimentalReadout: tissue uptake at 0.5 h

Ask: Return tissue uptake at 0.5 h for the following compound: O=C(NCCCC[C@H](N[C@@H](CCc1ccccc1)C(=O)O)C(=O)N1CCC[C@H]1C(=O)O)c1cccc([131I])c1 [^131 I-3, Lisinopril N^ε -radioiodobezamide]
Result: 0.7 %ID/g
